- systemTested: TYK2 (Homo sapiens)
- assayComment: TYK2 kinase inhibition (Table A1)
- Format: biochemical
- setupConditions: Table B1
pIC50: −log10 of the molar value. Where a name gives a salt, the structure may show the parent alone.
Property: pIC50; scope: individual molecules
readoutLabel: pIC50

molecule | readoutLabel | reported
CCC(C)c1ccccc1NC(=O)Nc1ccc2cc1CCc1cccc(c1)Nc1ncc(Cl)c(n1)N2 (stereo not drawn) [Example B126, trifluoroacetate] | pIC50 | 7.28
O=C(Nc1ccc2cc1CCc1cccc(c1)Nc1ncc(Cl)c(n1)N2)N[C@@H]1CCN(C(=O)c2ccccc2)C1 [Example B176, trifluoroacetate] | pIC50 | 7.60
O=C(Nc1ccc2cc1CCc1cccc(c1)Nc1ncc(Cl)c(n1)N2)N1CCN(c2ccccn2)CC1 [Example B290, bis(trifluoroacetate)] | pIC50 | 7.23
Cc1cc(C(=O)N2CCC(NC(=O)Nc3ccc4cc3CCc3cccc(c3)Nc3ncc(Cl)c(n3)N4)CC2)no1 [Example B263, trifluoroacetate] | pIC50 | 7.66
O=C(Nc1nccs1)Nc1ccc2cc1CCc1cccc(c1)Nc1ncc(Cl)c(n1)N2 [Example B245, trifluoroacetate] | pIC50 | 8.07
O=C(Nc1ccc2cc1CCc1cncc(c1)Nc1ncc(Cl)c(n1)N2)N[C@H]1CCN(C(=O)c2ccn[nH]2)C1 [Example B268, bis(trifluoroacetate)] | pIC50 | 6.27

---

- systemTested: TYK2 (Homo sapiens, UniProt P29597)
- Sequence (P29597 whole entry): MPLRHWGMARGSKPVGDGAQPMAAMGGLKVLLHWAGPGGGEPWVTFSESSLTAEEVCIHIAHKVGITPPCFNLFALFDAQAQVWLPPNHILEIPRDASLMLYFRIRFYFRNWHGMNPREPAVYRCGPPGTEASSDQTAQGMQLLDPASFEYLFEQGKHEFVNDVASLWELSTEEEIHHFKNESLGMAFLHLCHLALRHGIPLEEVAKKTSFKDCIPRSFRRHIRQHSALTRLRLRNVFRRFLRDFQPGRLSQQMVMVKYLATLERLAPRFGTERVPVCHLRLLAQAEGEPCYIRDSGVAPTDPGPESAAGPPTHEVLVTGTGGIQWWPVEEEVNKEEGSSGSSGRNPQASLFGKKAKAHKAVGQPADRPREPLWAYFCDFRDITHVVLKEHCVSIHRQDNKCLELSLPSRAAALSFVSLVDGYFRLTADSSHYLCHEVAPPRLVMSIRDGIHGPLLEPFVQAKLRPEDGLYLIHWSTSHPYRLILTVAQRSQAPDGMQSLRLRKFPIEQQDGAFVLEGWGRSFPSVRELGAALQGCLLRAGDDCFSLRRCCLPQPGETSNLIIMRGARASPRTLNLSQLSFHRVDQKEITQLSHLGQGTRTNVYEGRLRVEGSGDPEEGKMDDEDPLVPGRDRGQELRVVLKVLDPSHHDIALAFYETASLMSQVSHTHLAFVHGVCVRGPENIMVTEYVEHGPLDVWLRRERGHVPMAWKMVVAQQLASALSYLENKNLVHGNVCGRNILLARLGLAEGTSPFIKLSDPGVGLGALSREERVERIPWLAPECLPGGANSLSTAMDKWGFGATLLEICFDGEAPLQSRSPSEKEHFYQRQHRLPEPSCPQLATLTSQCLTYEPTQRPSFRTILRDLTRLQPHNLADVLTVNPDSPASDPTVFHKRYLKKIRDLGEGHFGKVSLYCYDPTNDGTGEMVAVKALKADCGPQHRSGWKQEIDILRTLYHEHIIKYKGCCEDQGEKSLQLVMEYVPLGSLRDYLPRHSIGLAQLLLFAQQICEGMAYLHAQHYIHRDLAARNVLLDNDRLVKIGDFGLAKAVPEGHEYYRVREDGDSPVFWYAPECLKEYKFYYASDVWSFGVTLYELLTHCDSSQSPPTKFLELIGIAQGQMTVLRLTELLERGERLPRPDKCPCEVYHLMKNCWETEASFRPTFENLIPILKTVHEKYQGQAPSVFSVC
- assayComment: TYK2 kinase inhibition (Table A1)
- Type: biochemical
- setupConditions: Table D1
Structures can show the parent of a compound that is named as a salt.
Property: log10(IC50); scope: individual molecules
readoutLabel: log10(IC50) (log10 of the value in nM)

molecule | readoutLabel | reported
Cn1c(NC(=O)c2cc3cc(c2)OCCSc2cccc(c2)Nc2nc(ncc2Cl)N3)nc2ccccc21 [Example D55, bis(trifluoroacetate)] | log10(IC50) | 1.94
O=C(NCc1ccccc1)N1CCN(c2cc(-c3cc4cc(c3)Nc3ncc(Cl)c(n3)Nc3cccc(c3)OCC4)ccn2)CC1 [Example D45, bis(trifluoroacetate)] | log10(IC50) | 1.11
O=C(C[C@@H]1CCCNC1)Nc1ccc2cc1CCc1cccc(c1)Nc1ncc(Cl)c(n1)N2 | log10(IC50) | 1.11
N#Cc1ccc(NC(=O)N2CCN(c3ccc4cc3CCc3cccc(c3)Nc3ncc(Cl)c(n3)N4)CC2)cc1 [Example D93, bis(trifluoroacetate)] | log10(IC50) | 1.85
COC(=O)Cn1c(=O)oc2c3cc(cc21)Nc1nc(ncc1Cl)Nc1cccc(c1)CC3 [Example D183, trifluoroacetate] | log10(IC50) | 2.22
O=C(CC1CN(C(=O)c2nc[nH]n2)C1)Nc1ccc2cc1CCc1cncc(c1)Nc1ncc(Cl)c(n1)N2 [Example D147, bis(trifluoroacetate)] | log10(IC50) | 2.60
O=C(NC1CCCC1)N1CCN(c2cc(-c3cc4cc(c3)Nc3ncc(Cl)c(n3)Nc3cccc(c3)OCC4)ccn2)CC1 [Example D46, bis(trifluoroacetate)] | log10(IC50) | 0.91
O=C(Nc1ccccc1)N1CCN(c2cc(-c3cc4cc(c3)Nc3ncc(Cl)c(n3)Nc3cccc(c3)OCC4)ccn2)CC1 [Example D44, bis(trifluoroacetate)] | log10(IC50) | 1.18

---

- systemTested: human JAK1 (a.a. 837-1142) (Homo sapiens, UniProt P23458)
- Construct: human JAK1 (a.a. 837-1142); His tag (N); made in house; host or cells: insect cells (baculovirus)
- Sequence (P23458 849-1154): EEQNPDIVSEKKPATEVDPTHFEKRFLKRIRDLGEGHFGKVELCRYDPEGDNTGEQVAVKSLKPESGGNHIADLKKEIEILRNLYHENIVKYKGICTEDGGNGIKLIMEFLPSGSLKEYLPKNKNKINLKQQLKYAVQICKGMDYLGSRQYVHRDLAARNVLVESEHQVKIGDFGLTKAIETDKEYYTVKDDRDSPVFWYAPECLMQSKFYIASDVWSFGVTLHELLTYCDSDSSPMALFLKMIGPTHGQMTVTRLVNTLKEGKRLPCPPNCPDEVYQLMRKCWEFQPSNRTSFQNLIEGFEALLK
- assayComment: In vitro JAK kinase assay (HTRF, phosphorylation of a biotinylated peptide), JAK1
- Format: biochemical
- setupConditions: method AA1 (90 μM ATP) or AA2 (1000 μM ATP), not stated per value; read-out: JAK1 IC50
pIC50: −log10 of the molar value. Counter-ions that a name gives are not always drawn.
Mark label 0 for pIC50 values under 8, and label 1 for everything at or above.

molecule | class
O=C(CC1CCN(C(=O)c2ncco2)CC1)Nc1ccc2cc1CCc1cncc(c1)Nc1ncc(Cl)c(n1)N2 [Example A139, bis(trifluoroacetate)] | label 1
N#Cc1cccc(C(=O)N2CCC(CC(=O)Nc3ccc4cc3CCc3cccc(c3)Nc3ncc(Cl)c(n3)N4)CC2)c1 [Example A187, trifluoroacetate] | label 0
O=C1CCc2cccc(c2)Nc2nc(ncc2Cl)Nc2cccc1c2 [Example A5, trifluoroacetate] | label 0
N#Cc1ccc(N2CCC(CC(=O)Nc3ccc4cc3CCc3cncc(c3)Nc3ncc(Cl)c(n3)N4)CC2)cc1 [Example A221, tris(trifluoroacetate)] | label 0
c1cc2cc(c1)Nc1ccnc(n1)Nc1cccc(c1)CC2 [Example A3, trifluoroacetate] | label 0
O=C(CC1CCN(C(=O)c2cnon2)CC1)Nc1ccc2cc1CCc1cncc(c1)Nc1ncc(Cl)c(n1)N2 [Example A138, bis(trifluoroacetate)] | label 1
Cc1nocc1C(=O)N1CCC(CC(=O)Nc2ccc3cc2CCc2cncc(c2)Nc2ncc(Cl)c(n2)N3)CC1 [Example A165, bis(trifluoroacetate)] | label 0
O=C(CC1CCNCC1)Nc1ccc2cc1CCc1cncc(c1)Nc1ncc(Cl)c(n1)N2 [Example A71, tris(trifluoroacetate)] | label 0
CC(=O)N1CCC(CC(=O)Nc2ccc3cc2CCc2cncc(c2)Nc2ncc(Cl)c(n2)N3)C1 (stereo not shown) [Example A94, bis(trifluoroacetate)] | label 0
